Values were extracted from ChEMBL document CHEMBL2095176.

- Experimental details: physchem
- Condition label: octanol/water
- Description: GSK_TB: GSK in-house hydrophobicity assay (logP)
Field 'label' (enum: yes / no). Set to yes when logP is strictly under 4; else no.

See these solved cases before continuing.
Compound	Group label
CC(Oc1ccccc1)C(=O)Nc1nc(-c2ccccn2)cs1 (stereo not given)	no
Nc1cccnc1Nc1ccc(C(F)(F)F)cc1	no
Nc1nc2cc(-c3cncc(Oc4ccc(F)cc4)c3)ccc2[nH]1.O=C(O)C(F)(F)F.O=C(O)C(F)(F)F	yes
CCn1c(=O)c(=O)[nH]c2cc(C(=O)Nc3ccccc3Nc3ccc(OC)cc3)ccc21	yes

Lab note: next compound to report on.
Prompt: Dear reviewer, please state whether O=C(N[C@@H](Cc1ccccc1)C(=O)Nc1ccccc1N1CCOCC1)c1cccs1 has logP strictly beneath 4.
Completion: no

* * *

- Experimental details: physchem
- Condition label: phosphate buffered saline, pH 7.4
Recorded endpoint: solubility kinetic (µM)
Dear colleague, please return just the value in µM, with no unit written.

Examples with answers:
Compound	Readout units	solubility kinetic
c1ccc(CCNc2cc(-c3ccccc3)nc3nncn23)cc1	µM	6
CN1CCN(c2ccc(C(F)(F)F)cc2NC(=O)c2ccccn2)CC1	µM	182
CC(C)(C)C(=O)CC1(O)Oc2ccccc2N=C1C=C(O)C(C)(C)C (stereo not drawn)	µM	75
Cc1ccc(SCCNC(=O)c2c(-c3ccccc3)noc2C)cc1	µM	50
CCc1ccc(C2CC(C(F)(F)F)n3ncc(C(=O)NCc4cccs4)c3N2)cc1 (stereo not drawn)	µM	1

Prompt: For the compound shown here, CCc1nnc(NC(=O)c2cccc(C(=O)Nc3nnc(CC)s3)n2)s1 , give the reported solubility kinetic.
Completion: 26

Prompt: For the compound shown here, Fc1ccccc1-c1noc(N2CCN(Cc3ccc4c(c3)OCO4)CC2)n1 , give the reported solubility kinetic.
Completion: 10

Prompt: For the compound shown here, Cc1nnc(NCc2cccc(Cl)c2)c2ccccc12 , give the reported solubility kinetic.
Completion: 127

Prompt: For the compound shown here, N#Cc1ccc2c(c1)CCN(CCCSc1ccnc3cc(C(F)(F)F)ccc13)CC2 , give the reported solubility kinetic.
Completion: 1

Prompt: For the compound shown here, Cc1nc2ccccn2c1C(=O)NCc1cccs1 , give the reported solubility kinetic.
Completion: 365

* * *

- Experimental details: physchem
- Condition label: buffer, pH 7.4
- Description: GSK_TB: GSK in-house hydrophobicity assay at pH7.4 (logD)
Recorded endpoint: logD
Just the number, please, no unit after it.

Compound	Endpoint result
COc1ccc(-c2cc(=O)c3cc(OCC(=O)OC(C)C)ccc3o2)cc1	5.91
Cc1ccc(SCCNC(=O)c2c(-c3ccccc3)noc2C)cc1	6.37
O=C(C=Cc1ccccc1)N1CCN(Cc2ccc3c(c2)OCO3)CC1	5.16
Cc1cnc(N2CCN[C@@H](Cc3ccccc3)C2)nc1Oc1ccc(-n2ccnc2)cc1.O=C(O)C(F)(F)F	4.04
O=C(NNC(=O)c1ccc([N+](=O)[O-])o1)c1ccc2ccccc2c1	3.02

// next entry
Prompt: For the compound shown here, CSc1cccc(C(=O)Nc2nc(-c3ccccn3)cs2)c1 , give the reported logD.
Completion: 5.25

* * *

// reported logD per item
- Experimental details: physchem
- Condition label: buffer, pH 7.4
Just the number, please, no unit after it.

Molecule	logD
CCN(Cc1ccc2c(c1)OCO2)C(=O)CSc1nc(NC)c2ccccc2n1	4.69

Prompt: For the molecule shown here, OC1(c2ccccc2)Oc2ccccc2N=C1c1ccccc1 (stereo not given) , give the reported logD.
Completion: 6.09

Prompt: For the molecule shown here, O=C(N[C@@H](Cc1ccccc1)C(=O)Nc1ccccc1N1CCOCC1)c1cccs1 , give the reported logD.
Completion: 5.53

Prompt: For the molecule shown here, O=C(NC1=NCCS1)c1sc2cc(F)ccc2c1Cl , give the reported logD.
Completion: 5.16

Prompt: For the molecule shown here, Nc1cccnc1Nc1ccc(C(F)(F)F)cc1 , give the reported logD.
Completion: 4.97

Prompt: For the molecule shown here, Cc1nc2ccccn2c1C(=O)NCc1ccccc1 , give the reported logD.
Completion: 3.2

Prompt: For the molecule shown here, O=C(Nc1nc(-c2ccccn2)cs1)c1cncn1-c1ccccc1 , give the reported logD.
Completion: 3.39

Prompt: For the molecule shown here, CCC(Sc1nc2ccccc2o1)C(=O)Nc1nccs1 (stereo not given) , give the reported logD.
Completion: 5.44

Prompt: For the molecule shown here, Cc1nc2ccccn2c1C(=O)NCc1ccc(Cl)cc1 , give the reported logD.
Completion: 4.04

Prompt: For the molecule shown here, O=C(O)C(F)(F)F.c1ccc(C[C@H]2CN(c3nccc(Oc4ccc(-n5ccnc5)cc4)n3)CCN2)cc1 , give the reported logD.
Completion: 3.58
